# MEASUREMENT PROTOCOL: in vitro
# RECORDED CONDITIONS: human, THP1-XBlue-CD14 reporter cells, Cell viability, LTA 1 µg/ml + peptide
METRIC NAME: viability at 20 h, 10 µM (%)

{"columns": ["TEST SMILES", "QUANTITATIVE READOUT"],
 "data": [
  ["CC[C@H](C)[C@H](NC(=O)[C@H](Cc1c[nH]c2ccccc12)NC(=O)[C@H](CCCCN)NC(=O)[C@H](CCCCN)NC(=O)[C@H](CC(C)C)NC(=O)[C@H](CCCNC(=N)N)NC(=O)[C@H](Cc1ccccc1)NC(=O)[C@@H](NC(=O)[C@@H](N)Cc1c[nH]cn1)C(C)C)C(=O)N[C@@]1(C)CCCC=CCCC[C@@](C)(C(=O)N[C@@H](CCC(N)=O)C(=O)N[C@@H](Cc2ccccc2)C(=O)NCC(=O)N[C@@H](CCC(=O)O)C(=O)O)NC(=O)[C@H]([C@@H](C)CC)NC(=O)[C@H](C(C)C)NC(=O)[C@H](CCCCN)NC1=O", 91.3]
]}
